- assayDetails: binders of probe aFGF2 on microarray, primary screen, stem cell growth factor project, biochemical, small-molecule microarray, fluorescence 635/667 (AID 1067);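 note: measures binding of biotinylated aFGF2 protein to printed compounds on slides; z-score merges feature fluorescence and signal-to-noise across triplicate slides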
- testContext: higher = more signal

{"compound": "Cc1ccc(S(=O)(=O)N[C@H]2COC(=O)CC=C[C@H](C)COC(=O)N[C@@H](C)C(=O)CC=C[C@@H]2C)cc1", "composite z-score": -0.22}
{"compound": "Cc1ccc(S[C@]2(C(=O)O)CC(=O)N(Cc3ccccc3)[C@@H]2c2ccc(CO)cc2)cc1", "composite z-score": -0.0853}
{"compound": "COc1ccc(C(O)C2C=CC3C(=O)N(C)C(=O)C3N2N2CCCCC2)cc1OCc1ccccc1 (configuration not stated)", "composite z-score": -0.0135}
{"compound": "C=CC[C@]1(C(=O)OC)N=C(c2ccc(OCCCO)cc2)O[C@H]1c1ccccc1CN=[N+]=[N-]", "composite z-score": -0.0004}
{"compound": "CCCC[C@H]1OB(O)C[C@H]2C1=C(COC)C[C@H]1C(=O)N(Cc3ccccc3)C(=O)[C@H]12", "composite z-score": 0.0644}
{"compound": "COCCOC(=O)N1C(=O)[C@@]2(c3cc(C#CCNC(N)=O)ccc31)[C@H](c1ccc(OCCO)cc1)N1[C@H](c3ccccc3)[C@H](c3ccccc3)OC(=O)[C@H]1[C@@H]2C(=O)N1CCCCCCC1", "composite z-score": 0.128}
{"compound": "CCCNC(=O)[C@@]1(Sc2ccc(C)cc2)CC(=O)N(Cc2ccccc2Cl)[C@@H]1c1ccc(CO)cc1", "composite z-score": -0.0711}

* * *

- assayDetails: E. coli DRC41 culture turbidity changes, primary screen, E. coli filamentation inducer project, strain DRC41, OD650, 48 h (AID 1152);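 note: E. coli MC1000 strain DRC41 lacking acrAB efflux pump and sulA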
- testContext: E. coli DRC41 (acrAB sulA), higher = more signal, called active from +8 up or from −8 down
Calls of active or inactive are those of the source.
Each record here notes measured z-score.
readoutType: z-score

{"compound": "C[N+](C)(C)CCCCNC(=O)[C@H]1C[C@H]2C(=O)NCC(=O)N2[C@H]1c1cccc(OCCO)c1", "readoutType": "z-score", "readoutValue": "-0.184 (inactive)"}
{"compound": "COc1ccc(-c2cc3c(c(-c4ccccc4)n2)[Si](C(C)C)(C(C)C)O[C@H]3c2ccccc2)cn1", "readoutType": "z-score", "readoutValue": "-1.27 (inactive)"}
{"compound": "C=CC[C@]1(C(=O)O)N=C(c2ccc(OCCCO)cc2)O[C@H]1c1ccccc1N=[N+]=[N-]", "readoutType": "z-score", "readoutValue": "1.76 (inactive)"}
{"compound": "CC(C)[Si]1(C(C)C)O[C@@H](c2ccccc2)c2cc(C3CC3)nc(-c3ccc(Oc4ccccc4)cc3)c21", "readoutType": "z-score", "readoutValue": "2.17 (inactive)"}
{"compound": "COC(=O)[C@@]1(Cc2ccccc2CN=[N+]=[N-])N=C(c2ccc(OCCCO)cc2)O[C@H]1c1ccccc1N=[N+]=[N-]", "readoutType": "z-score", "readoutValue": "-0.55 (inactive)"}
{"compound": "CC(C)N1CC=CC23O[C@@H]4/C=C\\CCCOC(=O)C4[C@H]2C(=O)N(CCO)[C@@H]3C1=O (stereo partly specified)", "readoutType": "z-score", "readoutValue": "3.41 (inactive)"}

Data credit: PubChem BioAssay
